- test.system: hP2X2/3 (Homo sapiens, UniProt P56373+Q9UBL9)
- Sequence (P56373 1-397): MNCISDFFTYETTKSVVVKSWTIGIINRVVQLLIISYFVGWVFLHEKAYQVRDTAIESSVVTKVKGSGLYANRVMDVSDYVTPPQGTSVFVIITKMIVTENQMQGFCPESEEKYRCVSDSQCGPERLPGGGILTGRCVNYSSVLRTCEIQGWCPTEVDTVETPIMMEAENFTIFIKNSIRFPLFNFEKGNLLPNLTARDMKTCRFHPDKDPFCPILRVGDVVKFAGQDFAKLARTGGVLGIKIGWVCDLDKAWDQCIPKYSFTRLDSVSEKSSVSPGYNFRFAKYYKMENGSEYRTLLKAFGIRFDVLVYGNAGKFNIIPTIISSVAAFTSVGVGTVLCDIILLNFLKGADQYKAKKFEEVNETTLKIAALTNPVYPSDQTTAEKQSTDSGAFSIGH
- Sequence (Q9UBL9 1-471): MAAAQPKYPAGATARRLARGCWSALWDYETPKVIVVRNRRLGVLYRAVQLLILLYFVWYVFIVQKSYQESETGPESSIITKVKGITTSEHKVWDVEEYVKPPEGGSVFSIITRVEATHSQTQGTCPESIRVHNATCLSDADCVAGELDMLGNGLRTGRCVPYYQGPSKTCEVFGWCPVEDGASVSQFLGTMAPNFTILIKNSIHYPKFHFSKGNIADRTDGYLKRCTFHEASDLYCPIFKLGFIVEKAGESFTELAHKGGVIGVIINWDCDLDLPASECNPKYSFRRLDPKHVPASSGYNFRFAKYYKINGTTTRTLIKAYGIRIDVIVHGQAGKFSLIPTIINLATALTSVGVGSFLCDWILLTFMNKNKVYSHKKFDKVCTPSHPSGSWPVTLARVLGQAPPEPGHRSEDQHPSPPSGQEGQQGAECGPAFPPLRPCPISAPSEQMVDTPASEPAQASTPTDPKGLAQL
- assay.text: FLIPR intracellular calcium assay, hP2X2/3
- test.parameters: human P2X2/3-TRex293 cells, agonist at EC75
pIC50: −log10 of the molar value.
This section presents compounds with their documented pIC50 values.
measured.attribute: pIC50

In [3]: df
Out[3]:
                                   compound                               test_system  measured_attribute      measured
0  CC(=O)N1CCN(c2nc(NC(C)(C)Cc3ccc(Cl)cc3)c3c(cnn3C(C)C)n2)CC1  hP2X2/3 (Homo sapiens, UniProt P56373+Q9UBL9)               pIC50  5.00 to 6.00
1  CCC(C)n1ncc2nc(-c3cnn(CCF)c3)nc(N[C@@H](c3cnc4ccccc4c3)C3CC3)c21 (stereo partly drawn)  hP2X2/3 (Homo sapiens, UniProt P56373+Q9UBL9)               pIC50  7.00 to 9.00
2  CC(C)n1ncc2nc(N3CCN(C)C(=O)C3)nc(N[C@@H](c3cnc4ccccc4c3)C3CC3)c21  hP2X2/3 (Homo sapiens, UniProt P56373+Q9UBL9)               pIC50  6.00 to 7.00
3  CCC(C)n1nc(Br)c2nc(N3CCN(C(C)=O)CC3)nc(N[C@H](C)c3cnc4ccccc4c3)c21 (stereo partly drawn)  hP2X2/3 (Homo sapiens, UniProt P56373+Q9UBL9)               pIC50  5.00 to 6.00
4  CCC(C)n1ncc2nc(N3CCN(S(N)(=O)=O)CC3)nc(N[C@@H](c3cnc4ccccc4c3)C3CC3)c21 (stereo partly drawn)  hP2X2/3 (Homo sapiens, UniProt P56373+Q9UBL9)               pIC50  5.00 to 6.00
5  CCC(C)n1ncc2nc(N3CCN(C(C)=O)CC3)nc(NCC3(c4ccc(Cl)cc4)CCC3)c21 (stereo not drawn)  hP2X2/3 (Homo sapiens, UniProt P56373+Q9UBL9)               pIC50  5.00 to 6.00
6  CCC(C)n1ncc2nc(N3CCN(C(C)=O)CC3)nc(N[C@@H](c3cnc4ccccc4c3)C3CC3)c21 (stereo partly drawn)  hP2X2/3 (Homo sapiens, UniProt P56373+Q9UBL9)               pIC50  6.00 to 7.00
7  CCC(C)n1ncc2nc(N3CCN(C(C)=O)CC3)nc(N[C@@H](C)c3cnc4ccccc4c3)c21 (stereo partly drawn)  hP2X2/3 (Homo sapiens, UniProt P56373+Q9UBL9)               pIC50  5.00 to 6.00
8  CC(=O)N1CCN(c2nc(N[C@H](C)c3cnc4ccccc4c3)c3nn(C(C)C)cc3n2)CC1  hP2X2/3 (Homo sapiens, UniProt P56373+Q9UBL9)               pIC50        < 5.00
